- Test system: Streptococcus pneumoniae, A9585
- Experimental details: In vitro antibacterial activity (MIC), serial 2-fold dilution
- Assay type: cell-based
- Condition details: Streptococcus pneumoniae A9585; Mueller-Hinton; 37°C, 17 h; read-out: Antibacterial Activity MIC S. pn.
Measured attribute: MIC (µg/mL)
Numbers only, in µg/mL.

C[C@@H](O)[C@H]1C(=O)N2C(C(=O)O)=C(SCCC#N)[C@H](CCCCCN)[C@H]12 ... 0.13
C[C@H](N)C(=O)NCC[C@H]1C(SCCC#N)=C(C(=O)O)N2C(=O)[C@H]([C@@H](C)O)[C@@H]12 ... 0.125
C[C@@H](O)[C@H]1C(=O)N2C(C(=O)O)=C(SCCC#N)[C@H](CCCCNC=N)[C@H]12 ... 0.06

Moving on to the next compound.
## Task Suppose we examine the compound `C[C@@H](O)[C@H]1C(=O)N2C(C(=O)O)=C(SCCOC(N)=O)[C@H](CCCCNC(=N)N)[C@H]12` ; what MIC value has been reported?
## Result 0.25
